test system: SK-OV-3; test: Cytotoxicity against human Scov3 cells at 50 uM after 72 hrs by MTT assay; format: functional; details: SK-OV-3, 72 h
Exercise: state measured inhibition at 50 µM for each of the compounds provided.

Solved entries (count: 3):
CCOP(=O)(CCCN1C/C(=C\c2ccc(N(C)C)cc2)C(=O)/C(=C/c2ccc(N(C)C)cc2)C1)OCC: < 50%
CCOP(=O)(CCCCN1C/C(=C\c2ccc(N(C)C)cc2)C(=O)/C(=C/c2ccc(N(C)C)cc2)C1)OCC: < 50%
CCOP(=O)(CCN1C/C(=C\c2ccc(N(C)C)cc2)C(=O)/C(=C/c2ccc(N(C)C)cc2)C1)OCC: < 50%

GET /value?item= CCOP(=O)(CN1C/C(=C\c2ccc(N(C)C)cc2)C(=O)/C(=C/c2ccc(N(C)C)cc2)C1)OCC &field=inhibition at 50 µM returns < 50%
